- experimental-details: reduction of polyQ htt aggregates in cells – imaging, exon1htt(103Q)mCFP cells, high-content imaging, primary screen (AID 483);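 further: compound exposure lasted 3 days before fixation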
- condition-context: exon1htt(103Q)mCFP cell line, aggregate imaging, at 2 µM; active compounds read high
Calls of active or inactive are those of the source.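 How the source made its calls: active means visual image review flags a hit and inhibition of aggregation exceeds 20%; inconclusive means visual hit but inhibition at or below 20%; inactive means no hit on visual image review.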
Exercise: state measured inhibition of aggregation for each of the compounds provided.

Look up and state reported inhibition of aggregation for O=P(O)(O)C(O)C(F)(F)C(F)(F)C(F)(F)C(F)F (stereo not drawn)
-7% (inactive)

Look up and state reported inhibition of aggregation for CCCn1c2c(c(O)c(C(=O)NC)c1=O)CCCC2
-3.3% (inactive)

Look up and state reported inhibition of aggregation for Cn1c(-c2ccccc2)c(CCO)c2ccccc21
-2.6% (inactive)

Look up and state reported inhibition of aggregation for Cc1ccc(S(=O)(=O)N2CCN(C(=O)CSc3nnnn3C)C2)cc1
1.4% (inactive)

Look up and state reported inhibition of aggregation for CCOCC(O)CS(=O)Cc1ccccc1 (stereo not drawn)
4.7% (inactive)

Look up and state reported inhibition of aggregation for O=C(CN(CC1CCCO1)C(=O)CCC(=O)Nc1ccccn1)NCC1CCCO1 (stereo not drawn)
-13.7% (inactive)

Look up and state reported inhibition of aggregation for Cc1cc2c(cc(C(=O)OCC(=O)NCc3cccs3)n2C(C)C)o1
7.7% (inactive)

Look up and state reported inhibition of aggregation for CC1CCCC(NC(=O)CSc2ncccc2C(=O)O)C1C (stereo not drawn)
7.4% (inactive)

Look up and state reported inhibition of aggregation for O=C1c2ccccc2C(=O)N1c1cccc(-c2nc3ccccc3o2)c1
4% (inactive)

Look up and state reported inhibition of aggregation for COc1ccc(OC)c(NS(=O)(=O)Cc2ccccc2)c1
-14.8% (inactive)

Look up and state reported inhibition of aggregation for CC(C)C(=O)Nc1cccc(NC(=O)c2cccnc2)c1
-20.9% (inactive)

Look up and state reported inhibition of aggregation for COC(=O)c1cn(C(=O)OC)c2ccccc12
10.2% (inactive)

Look up and state reported inhibition of aggregation for COc1cc(OC)cc(C(=O)N2CCN(C(=O)c3ccc(OC)c(OC)c3)CC2)c1
-5.3% (inactive)

Look up and state reported inhibition of aggregation for O=C(Nc1ccc(S(=O)(=O)N2CCCCCC2)cc1)c1ccco1
12.9% (inactive)

Look up and state reported inhibition of aggregation for CCOC(=O)N1CCC(NC(=O)Cn2cc3c(n2)CCC(C)C3)CC1 (stereo not drawn)
0.7% (inactive)

Look up and state reported inhibition of aggregation for Cc1ccccc1-c1nc(CN2CCC(C(=O)NCCCN3CCCC3)CC2)c(C)o1
-91.5% (inactive)

Look up and state reported inhibition of aggregation for Cc1ccc(-n2nc(C(=O)N3CCN(C)CC3)c3c4ccccc4n(C)c3c2=O)cc1
-10.3% (inactive)

Look up and state reported inhibition of aggregation for COCc1nnc(NC(=O)c2ccc(NC(C)=O)cc2)s1
-4.2% (inactive)

----------
- experimental-details: inhibitors of larval lipid processing in zebrafish, primary screen, whole organism, PED6 fluorescence, gall bladder and intestine (AID 686);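 further: larvae 5 to 7 days old with five fish per well; signal comes from phospholipase A2 cleavage of quenched PED6 carried via bile; overnight exposure to compound and PED6 before scoring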
- condition-context: Zebrafish larvae PED6 lipid processing, fluorescence scoring; screened at 20 µM (by protocol)
Calls of active or inactive are those of the source.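 How the source made its calls: active means a full or partial loss of lipid-probe fluorescence in the fish gall bladder, intestine or both, judged by eye; inactive means no fluorescence loss, or compound toxic to the fish.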
quantity-measured: outcome

// worked examples, outcome included
>  <molecule-smiles>
CCOC(=O)Cc1csc(NC(=O)c2cccc(OC)c2)n1

>  <result>
inactive

$$$$
>  <molecule-smiles>
CCOc1ccccc1N1CC(O)=C(c2nc3ccccc3s2)C1=N

>  <result>
inactive

$$$$
>  <molecule-smiles>
CCn1nnnc1SCC(=O)N1c2ccccc2CCc2ccccc21

>  <result>
inactive

$$$$
>  <molecule-smiles>
O=C(CN1CCN(Cc2ccc3c(c2)OCO3)CC1)N1CCc2[nH]c3ccc(F)cc3c2C1

>  <result>
inactive

$$$$

Proceeding to the next molecule to report its outcome.
Look up and state reported outcome for CCOC(=O)Cn1nnnc1CN(Cc1ccc(OC)cc1)Cc1cc2cc(C)ccc2[nH]c1=O
inactive

----------
- experimental-details: endothelial E-selectin expression blockers – imaging, HUVEC, immunofluorescence, MLSMR starter and 10KST1 sets, primary screen (AID 487);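 further: signal is fraction of cell area covered by stained E-selectin grains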
- condition-context: HUVEC TNFalpha-induced E-selectin immunofluorescence imaging, at 2 µM; active compounds read high
quantity-measured: inhibition (%)
Value expressed in %; do not type the unit.

Look up and state reported inhibition for CCOC(=O)c1c(N)nn(C(=O)C(C)C)c1-c1ccccc1
4.3

Look up and state reported inhibition for CCCc1cc(=O)n2[nH]c(-c3ccc(Br)cc3)cc2n1
-27.5

Look up and state reported inhibition for CCOC(=O)N1CCN(C(=O)c2ccc3c(=O)n(CCc4ccccc4)c(=O)[nH]c3c2)CC1
-60

Look up and state reported inhibition for COc1ccc(C2(C(=O)Nc3cc(C)on3)CCOCC2)cc1
-51.8

Look up and state reported inhibition for CN(C)c1ccc(C(=O)OCC(=O)NC2CCCCC2)cc1
-46.5

Look up and state reported inhibition for COC(=O)C1=C(C)NC(C)=C(C(=O)OC)C1c1cc2cc(C)ccc2[nH]c1=O
-103

----------
- experimental-details: blockers of RIG-like receptor reporter activation – cell-based, Sendai virus stimulus, luciferase, 10K MLSCN set, TLR/RLR signaling modifier project, primary screen (AID 602276);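 further: firefly luciferase from ISG56 promoter only with Renilla not read in this screen; 0% = Sendai virus plus DMSO and 100% = medium plus DMSO without virus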
- condition-context: HEK293 RL24 IRF3 luciferase reporter, at 10 µM, active compounds read high
The source made the active and inactive calls.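 Rule for the calls: active = inhibition at or above 50% at 10 µM; inactive = inhibition below 50%.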
Exercise: state measured inhibition for each of the compounds provided.

Look up and state reported inhibition for CC(N)C12CC3CC(C1)CC(C(C)N)(C3)C2 (configuration not stated)
13.4% (inactive)

Look up and state reported inhibition for O=C(Nc1ccccc1C(=O)NCC1CCCO1)c1ccco1 (configuration not stated)
9.09% (inactive)

Look up and state reported inhibition for O=C(CSc1nnnn1C1CCCC1)Nc1cccc(NC(=O)c2ccco2)c1
5.72% (inactive)

Look up and state reported inhibition for Cc1ccc(-c2nnc(SCC(=O)N3CC(C)CC(C)C3)o2)cc1C (configuration not stated)
-0.246% (inactive)

Look up and state reported inhibition for COC(=O)CCn1nnc(-c2ccc(C)cc2)n1
21.3% (inactive)

Look up and state reported inhibition for O=C1CC(c2ccccc2)CC(O)=C1C=NCCCN1CCOCC1 (configuration not stated)
7.43% (inactive)

Look up and state reported inhibition for CCOc1ccc(N(C(C)C(=O)NC2CCCCCC2)S(C)(=O)=O)cc1 (configuration not stated)
3.76% (inactive)

Look up and state reported inhibition for COc1cccc(OCC(O)CN2CCN(CCO)CC2)c1 (configuration not stated)
8.25% (inactive)

Look up and state reported inhibition for O=C(Nc1ccc2c(c1)OCCO2)c1cnc2n(c1=O)CCS2
-79.9% (inactive)

Look up and state reported inhibition for Cc1occc1-c1nnc(SCC(=O)NCC2CCCO2)n1C (configuration not stated)
16.7% (inactive)

Look up and state reported inhibition for CCC1c2ccc(C)n2CCN1C(=O)Nc1ccccc1OC (configuration not stated)
3.56% (inactive)

Look up and state reported inhibition for CCC(=O)c1ccc(OC(=O)c2ccc(Br)o2)cc1
10.9% (inactive)

Look up and state reported inhibition for CCN(c1ccc(OC)cc1)S(=O)(=O)c1ccc2c(c1)CCN2C(=O)CCC(=O)O
14.1% (inactive)

Look up and state reported inhibition for COC(=O)c1sccc1NC(=O)c1ccco1
2.56% (inactive)

Look up and state reported inhibition for Cc1ccccc1-c1nc(CS(=O)(=O)CC(=O)NCc2ccccc2)c(C)o1
9.9% (inactive)

Look up and state reported inhibition for CC(CCc1ccccc1)NC(=O)C1CCN(S(=O)(=O)c2cnc[nH]2)CC1 (configuration not stated)
9.51% (inactive)

Look up and state reported inhibition for COc1ccc(C)cc1NC(=O)CCN1CCCC1
15.3% (inactive)

Look up and state reported inhibition for Nc1scc(-c2ccncc2)c1Cl
-19.6% (inactive)

Look up and state reported inhibition for COc1ccc(-c2noc(C3CCCN(C(=O)CCc4ccccc4)C3)n2)cc1 (configuration not stated)
12.3% (inactive)

Look up and state reported inhibition for COc1ccc(OC)c(-n2nnnc2SCC(=O)NCc2ccc3c(c2)OCO3)c1
18% (inactive)

Look up and state reported inhibition for COc1cc(C2C(C#N)=C(N)OC3=C2C(=O)CC(C)(C)C3)ccc1OC(=O)N1CCOCC1 (configuration not stated)
-15.1% (inactive)

Look up and state reported inhibition for CC(C)(C)OC(=O)N1CCN(c2ccc(NC(=O)c3cc4ccccc4oc3=O)cc2)CC1
16.2% (inactive)

----------
- measurement-target: Voltage-gated potassium channel subunit beta-2 (Rattus norvegicus)
- experimental-details: inhibitors of rat Kvbeta2 reductase activity – biochemical, NADPH fluorescence, primary screen (AID 622);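 further: slope of raw intensity against log time taken from 70 to 1610 s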
- condition-context: recombinant KvBeta, 4-cyanobenzaldehyde reduction, at 10 µM, active compounds read high
Please use yes whenever fluorescence slope is not below -0.5, and no whenever it is.

Threshold query (fluorescence slope >= -0.5) on COC(=O)CSc1nnc(-c2ccc(OC)cc2OC)o1
yes

Threshold query (fluorescence slope >= -0.5) on Cc1ccccc1Cn1c(=O)c2c(nc3n2CCCN3Cc2ccccc2)n(C)c1=O
yes

Threshold query (fluorescence slope >= -0.5) on O=C(Nc1ccc2c(c1)nc1n2CCSC1)c1ccccc1
yes

Threshold query (fluorescence slope >= -0.5) on CCOC(=O)c1oc2ccccc2c1CSc1nnnn1-c1ccc(OC)cc1
no
